Source: PubChem BioAssay AID1656

Experiment: inhibitors of hepatocyte lipid droplet formation, primary screen, imaging, high-throughput imaging, BODIPY stain (AID 1656)
Details: AML12 mouse hepatocytes, oleate lipid droplets, at 6.5 µM; hits give high values
Hit rate of the full screen: of about 240,000 compounds, about 950 (0.4%) were called active. This is one part of a sample in which actives are shown more often than they occur.
metric: inhibition (%)
# unit: % | format: bare number

Cc1ccc2cc(C)c(N3CCN(c4ccc(F)cc4)CC3)nc2c1	15
CCC1=C(C(=O)OC)C(c2cc(OC)ccc2OC)C(C#N)=C(N)O1 (stereo unspecified)	-12.3
CN(C(=O)c1cc2c(=O)n3ccccc3nc2s1)C1CCCCC1	-14.1
COc1cc(SC)ccc1C(=O)N(Cc1ccccc1)c1ccccc1	-8.6
CCn1c(SCc2cccc(C(=O)O)c2)nnc1-c1ccc(Cl)cc1	11.8

Look up inhibition of CCCc1cc(C(=O)N2CCCC(CO)(CCCc3ccccc3)C2)n(C)n1 (stereo unspecified) and report it.
-27.5

Look up inhibition of CCCc1ccc(-c2csc(NC(=O)Cc3cccs3)n2)cc1 and report it.
71
